targetSystem: T1, full length human GLP-1R with N-terminal FLAG tag and C-terminal GFP tag, on CHO cells (human, UniProt P43220 24-463)
T1 construct: whole, on cells; the cell line itself is tied to UniProt P43220; also called FLAG-GLP-1R-GFP; CHO-GLP-1R
methodSummary: flow cytometry titration, CHO GLP1R cells

{"binder": "GLP1R-221-075 (antibody, V domains shown, IgG) VH: QVQLVESGGGVVQPGRSLRLSCAASGFTFSNYPMHWVRQAPGKGLEWVAVISYDETNKYYADSVKGRFTISRDNSKNTLYLQMNSLRAEDTAVYYCAKHMSMQEGAVTGEGQAAKEFIAWLVKGIVRADLVGDAFDVWGQGTLVTVSS VL: QSVLTQPPSVSAAPGQKVTISCSGSGSNIGNNDVSWYQQLPGTAPKLLIYDNDKRPAGIPDRFSGSKSGTSATLGITGLQTGDEADYYCGTWDTSLSNYVFGGGTKLTVL", "Bmax": 213000}
{"binder": "GLP1R-221-034 (antibody, V domains shown, IgG) VH: QVQLVESGGGVVQPGRSLRLSCAASGFPFSNYGMHWVRQAPGKGLEWVAVISHDRSNKYYADSVKGRFTISRDNSKNTLYLQMNSLRAEDTAVYYCAKHMSMQEGAVTGEGQAVKEFIAWLVKGRVRADLVGDAFDVWGQGTLVTVSS VL: QSVLTQPPSVSAAPGQKVTISCSGSSSNIGNNPVSWYQQLPGTAPKLLIYENDNRPSGIPDRFSGSKSGTSATLGITGLQTGDEADYYCATWDRGLSTGVFGGGTKLTVL", "Bmax": 933000}
{"binder": "GLP1R-221-092 (antibody, V domains shown, IgG) VH: QVQLVESGGGVVQPGRSLRLSCAASGFIFNNYGMHWVRQAPGKGLEWVAFISYGGSNKYYADSVKGRFTISRDNSKNTLYLQMNSLRAEDTAVYYCAKHMSMQEGAVTGEGQAVKEFIAWLVKGRVRADLVGDAFDVWGQGTLVTVSS VL: QSVLTQPPSVSAAPGQKVTISCSGTTSNIANNFVSWYQQLPGTAPKLLIYDNNKRPPGIPDRFSGSKSGTSATLGITGLQTGDEADYYCGTWDTSLSVGMFGGGTKLTVL", "Bmax": 145000}

This collection of values is drawn from patent US20250340658A1.
